FYI, the data here is from PubChem BioAssay (Tox21).

# Lookup of reported Potency keyed by entry
# assayed_system: D(2) dopamine receptor (Homo sapiens) (UniProt P14416)
# Sequence (P14416 whole entry, looked up): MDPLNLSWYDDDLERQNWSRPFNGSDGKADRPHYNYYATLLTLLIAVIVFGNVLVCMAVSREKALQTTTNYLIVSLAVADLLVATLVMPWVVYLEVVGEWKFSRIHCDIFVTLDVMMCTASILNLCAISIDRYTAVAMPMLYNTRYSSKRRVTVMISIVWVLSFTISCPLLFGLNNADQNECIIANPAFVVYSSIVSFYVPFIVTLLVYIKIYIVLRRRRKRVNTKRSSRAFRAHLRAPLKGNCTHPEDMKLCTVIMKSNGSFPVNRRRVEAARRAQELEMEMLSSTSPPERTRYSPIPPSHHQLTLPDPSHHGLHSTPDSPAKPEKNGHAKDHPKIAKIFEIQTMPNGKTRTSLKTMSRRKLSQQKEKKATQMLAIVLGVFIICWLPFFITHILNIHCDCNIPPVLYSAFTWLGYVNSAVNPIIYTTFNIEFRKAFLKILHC
# protocol_text: Dopamine D2 receptor (DRD2) small molecule antagonists, cell-based qHTS assay (AID 1963595); further: potency means the concentration at half of the fitted maximal effect
# run_parameters: HEK293-DRD2 cAMP HTRF antagonist mode; series mostly up to 92.4 µM
Inconclusive results are not listed. The source made the active and inactive calls. The call rests on the fitted dose curve; in most records, active means well fitted inhibition curve with a large enough effect in the signal ratio in the repeat runs, with a control signal flat; inconclusive means weak or mixed curves, or effect the other way; inactive means flat fitted curve, though single readings scatter; the % refers to the signal ratio.

1) Cc1nc2ccccn2c(=O)c1CCN1CCC(C(=O)c2ccc(F)cc2)CC1 = 0.531 µM (active)

[in] Lab note: D(2) dopamine receptor (Homo sapiens) (UniProt P14416) assay, enter Potency for CCN(CC)CCNC(=O)c1cc(S(C)(=O)=O)ccc1OC here
[out] 15 µM (active)

[in] Please indicate recorded Potency of O=C1CC2(CCCC2)CC(=O)N1CCNCC1COc2ccccc2O1 (stereo unspecified) measured with D(2) dopamine receptor (Homo sapiens) (UniProt P14416).
[out] 0.75 µM (active)

[in] Fetch value of Potency on D(2) dopamine receptor (Homo sapiens) (UniProt P14416) for CN(C)CCCN1c2ccccc2Sc2ccccc21 .
[out] 29.8 µM (active)

###

# assayed_system: Muscarinic acetylcholine receptor M1 (Homo sapiens) (UniProt P11229)
# Sequence (P11229 whole entry, looked up): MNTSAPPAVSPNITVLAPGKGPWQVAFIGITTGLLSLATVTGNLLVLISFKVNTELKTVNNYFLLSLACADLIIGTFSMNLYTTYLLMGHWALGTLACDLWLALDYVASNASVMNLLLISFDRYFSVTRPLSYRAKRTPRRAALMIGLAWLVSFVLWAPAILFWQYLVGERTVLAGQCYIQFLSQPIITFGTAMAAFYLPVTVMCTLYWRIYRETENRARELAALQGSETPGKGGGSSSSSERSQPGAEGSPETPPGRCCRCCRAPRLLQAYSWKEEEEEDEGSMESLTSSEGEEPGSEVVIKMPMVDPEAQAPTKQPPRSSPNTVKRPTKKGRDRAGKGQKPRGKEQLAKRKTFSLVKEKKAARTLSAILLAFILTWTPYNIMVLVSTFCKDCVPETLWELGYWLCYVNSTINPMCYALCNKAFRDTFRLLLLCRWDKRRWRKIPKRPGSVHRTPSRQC
# protocol_text: Cholinergic receptor muscarinic 1 (CHRM1) small molecule antagonists, cell-based qHTS assay (AID 1963588); further: on the % scale 0 is the no-effect control and ±100 the full control effect; nearly all actives have a fitted effect of over 40% in size
# run_parameters: CHRM1-CHO antagonist mode, calcium flux fluorescence; series mostly up to 61.5 µM
Records with an inconclusive call do not appear. Active and inactive are the calls of the source. Calls follow the shape of the full dose curve.
Return exactly one item of active, inactive

[in] Tell me the recorded outcome of this test for Nc1cccc(S(=O)(=O)c2cccc(N)c2)c1 .
[out] inactive

[in] Field: outcome | Entry: C/C=C/C=C/COC(=O)C(C)C
[out] inactive

[in] Dear all, I need the recorded test outcome for CCCCCCCCOc1ccc(C(=O)O)cc1 , thank you.
[out] inactive

[in] What outcome does the record of this test show for Cn1cccc1 ?
[out] inactive

[in] Can you look up the reported call for CCOC(=O)[C@H](CCc1ccccc1)N[C@@H](C)C(=O)N1Cc2cc(OC)c(OC)cc2C[C@H]1C(=O)O for me?
[out] inactive

[in] Please state the recorded outcome for this compound: CC(C)C[P+](C)(CC(C)C)CC(C)C
[out] inactive

[in] Recorded call for O=C(OCC1CO1)C1CCCCC1C(=O)OCC1CO1 (stereo unspecified) ?
[out] inactive

###

// values below are reported Potency
# protocol_text: p53 small molecule agonists, cell-based qHTS assay with human liver microsomes: qHTS cell viability counter screen (AID 1963579); further: potency means the concentration at half of the fitted maximal effect; nearly all actives have a fitted effect of over 45% in size
# run_parameters: p53RE-bla HCT-116 viability, ATP luminescence, 16 h, HLM; series mostly up to 66 µM
Results filed as inconclusive are left out. Calls of active or inactive are those of the source. Calls come from the whole dose curve.

1) CN(C[C@@H](CC[N+]12CCC(C3CCCCC3)(CC1)CC2)c1ccc(Cl)c(Cl)c1)C(=O)c1cc(C(F)(F)F)cc(C(F)(F)F)c1 = 36.3 µM (active)

[in] // fetch Potency given entry C=CC(=O)OCC(CO)(COCC(COC(=O)C=C)(COC(=O)C=C)COC(=O)C=C)COC(=O)C=C
[out] 3.2 µM (active)

[in] Supply Potency value. Item: CC1(C)S[C@@H]2[C@H](NC(=O)C(C(=O)O)c3ccccc3)C(=O)N2[C@H]1C(=O)O (some centres not stated)
[out] 0.177 µM (active)

[in] Fill in reported Potency for this entry: CS(=O)(=O)c1ccc(-c2cn3ccccc3n2)cc1
[out] 17.8 µM (active)

[in] Complete the entry with Potency for O=C(O)c1cc(O)c2ccccc2c1O
[out] 8.14 µM (active)

[in] Please look at this molecule and report its Potency: Cc1cc(F)ccc1-c1cc(N2CC[C@@H](O)[C@H]2CO)ncc1N(C)C(=O)C(C)(C)c1cc(C(F)(F)F)cc(C(F)(F)F)c1
[out] 14.3 µM (active)

[in] Please give the documented Potency of O=S1(=O)CC(Cl)(Cl)C(Cl)(Cl)C1
[out] 5.76 µM (active)

###

# protocol_text: cAMP Responsive Elements (CRE) small molecule antagonists, cell-based qHTS assay (AID 1963591); further: on the % scale 0 is the no-effect control and ±100 the full control effect
# run_parameters: CRE-bla HEK293T, beta-lactamase FRET ratio; series mostly up to 92.4 µM
Inconclusive results are not listed. Calls of active or inactive are those of the source. The call rests on the fitted dose curve; in most records, active means well fitted inhibition curve with a large enough effect in the signal ratio in the repeat runs (not every such curve was filed as active); inconclusive means weak or mixed curves, or effect the other way; inactive means flat fitted curve, though single readings scatter; the % refers to the signal ratio.
measured_quantity: activity change, negative = inhibition

1) CCc1nccnc1CC = -3.19% [at 18.9 µM] (inactive)
2) CC(=O)Nc1ccc(C)cc1C = inactive
3) O=C(O)COCC(=O)O = inactive
4) N#Cc1ccc(CC(=O)c2cccc(C(F)(F)F)c2)cc1 = inactive

Turning to the following molecule.
[in] Please look at this molecule and report its activity change, negative = inhibition: Cc1ccc(CCn2c3c(c4cc(Cl)ccc42)CN(C)CC3)cn1
[out] inactive

###

# protocol_text: Nuclear factor erythroid 2-related factor 2/antioxidant responsive element (Nrf2/ARE) small molecule agonists: luciferase reporter gene qHTS assay in human keratinocytes (AID 1919969); further: nearly all actives have a fitted effect of over 35% in size
# run_parameters: KeratinoSens HaCaT ARE-luciferase, luminescence, 24 h; series mostly up to 92.4 µM
Inconclusive results are not listed. Activity calls are given as the source filed them. Calls come from the whole dose curve.
One label from this list, please: Yes = active, No = inactive

1) O=C(O)c1snc(Cl)c1Cl = Yes
2) C[C@H](CCC(=O)NCC(=O)O)[C@H]1CC[C@H]2[C@@H]3[C@H](O)C[C@@H]4C[C@H](O)CC[C@]4(C)[C@H]3C[C@H](O)[C@]12C = No
3) CC1=CP(=O)(c2ccccc2)CC1 (centres undefined) = No
4) CCOc1ccccc1N = No
5) CCCCCCCCCCCCCC(=O)OCC(O)CO (centres undefined) = No

[in] Outcome? O=C1C(CCS(=O)c2ccccc2)C(=O)N(c2ccccc2)N1c1ccccc1 (centres undefined)
[out] No

[in] Entry CCCCCCCCCCCCCCNCCO : call = ?
[out] Yes

[in] Hello, I am checking results. What call was entered for CCCOc1ccc(C(=O)OCCN(CC)CC)cc1N ?
[out] No

[in] Recorded test outcome, item O=C(O)Cc1ccccc1Oc1ccc(Cl)cc1Cl
[out] No

[in] Call for entry CC(=O)O[C@H]1C[C@@H]2CC[C@@H]3[C@H](CC[C@@]4(C)[C@H]3C[C@H]([N+]3(C)CCCCC3)[C@@H]4OC(C)=O)[C@@]2(C)C[C@@H]1N1CCCCC1 :
[out] No

[in] Look up the recorded call for O=C1OC(O)C(C(Cl)Cl)=C1Cl (centres undefined) in this test.
[out] Yes

[in] How did this test come out for COc1ccccc1OCC(O)COC(N)=O (centres undefined) ?
[out] No

[in] Per the assay record, what outcome was assigned to Cn1c(=O)c2c(ncn2CC(O)CO)n(C)c1=O (centres undefined) ?
[out] No

[in] Hello, I am checking results. What call was entered for O=C(NCC1CN(c2ccc(N3CCOCC3=O)cc2)C(=O)O1)c1ccc(Cl)s1 (centres undefined) ?
[out] No

[in] Record request — test call for NC(=O)CC[C@@H]1NC(=O)[C@H](Cc2ccccc2)NC(=O)[C@H](Cc2ccc(O)cc2)NC(=O)CCSSC[C@@H](C(=O)N2CCC[C@H]2C(=O)N[C@@H](CCCN=C(N)N)C(=O)NCC(N)=O)NC(=O)[C@H](CC(N)=O)NC1=O
[out] No

###

# protocol_text: Nuclear factor erythroid 2-related factor 2/antioxidant responsive element (Nrf2/ARE) small molecule agonists: qHTS cell viability counter screen in human keratinocytes (AID 1919968); further: on the % scale 0 is the no-effect control and ±100 the full control effect; nearly all actives have a fitted effect of over 55% in size
# run_parameters: KeratinoSens HaCaT ARE cells viability, CellTiter-Fluor, 24 h; series mostly up to 92.4 µM
Records with an inconclusive call do not appear. Activity calls are given as the source filed them. Calls come from the whole dose curve; as a rule, active = well fitted cell-killing curve with a large enough effect in the repeat runs; inconclusive = weak or mixed curves, or effect the other way; inactive = flat fitted curve, though single readings scatter.
measured_quantity: Potency

Below, 5 compounds whose answers are already recorded.
1) CC(C)=CCC/C(C)=C/COC=O = inactive
2) ClC(Cl)(Br)Br = inactive
3) CC[N+](CC)(CC)CCOc1cccc(OCC[N+](CC)(CC)CC)c1OCC[N+](CC)(CC)CC = inactive
4) COc1cc2c(cc1OC)C(C(C(=O)N(CCc1ccc(OC)c(OC)c1OC)CCc1ccc(OC)c(OC)c1OC)c1ccccc1)=NCC2 (stereo not drawn) = inactive
5) O=C(OOC(=O)c1ccccc1)c1ccccc1 = inactive

[in] Please look at this compound and report its Potency: CN(C)CCN1CCN(c2cccc(Cl)c2)C1=O
[out] inactive

[in] Supply Potency value. Item: CCC(=O)O[C@]1(C(=O)COC)[C@@H](C)C[C@H]2[C@@H]3CCC4=CC(=O)C=C[C@]4(C)C3(F)[C@@H](O)C[C@@]21C (stereo partly drawn)
[out] inactive

[in] Please give the documented Potency of Nc1nc(N)c(-c2ccccc2)s1
[out] inactive

[in] For the compound CCOc1nc2cccc(C(=O)O)c2n1Cc1ccc(-c2ccccc2-c2nn[nH]n2)cc1 , report Potency.
[out] inactive

[in] Given the compound Cc1ccccc1N1C(=O)c2cc(S(N)(=O)=O)c(Cl)cc2NC1C (stereo not drawn) , write its reported Potency.
[out] inactive

[in] Note down Potency recorded for CC(=O)CC(=O)OC(C)(C)C
[out] inactive
